target: c-Met (Homo sapiens, UniProt P08581); assay: Ki determination for the inhibition of c-Met kinase activity (standard coupled enzyme system); format: biochemical; conditions: coupled enzyme system, 200 μM ATP, 10 μM polyGluTyr, 80 nM c-Met, 30° C.; read-out: c-Met Ki
Sequence (P08581 25-1390): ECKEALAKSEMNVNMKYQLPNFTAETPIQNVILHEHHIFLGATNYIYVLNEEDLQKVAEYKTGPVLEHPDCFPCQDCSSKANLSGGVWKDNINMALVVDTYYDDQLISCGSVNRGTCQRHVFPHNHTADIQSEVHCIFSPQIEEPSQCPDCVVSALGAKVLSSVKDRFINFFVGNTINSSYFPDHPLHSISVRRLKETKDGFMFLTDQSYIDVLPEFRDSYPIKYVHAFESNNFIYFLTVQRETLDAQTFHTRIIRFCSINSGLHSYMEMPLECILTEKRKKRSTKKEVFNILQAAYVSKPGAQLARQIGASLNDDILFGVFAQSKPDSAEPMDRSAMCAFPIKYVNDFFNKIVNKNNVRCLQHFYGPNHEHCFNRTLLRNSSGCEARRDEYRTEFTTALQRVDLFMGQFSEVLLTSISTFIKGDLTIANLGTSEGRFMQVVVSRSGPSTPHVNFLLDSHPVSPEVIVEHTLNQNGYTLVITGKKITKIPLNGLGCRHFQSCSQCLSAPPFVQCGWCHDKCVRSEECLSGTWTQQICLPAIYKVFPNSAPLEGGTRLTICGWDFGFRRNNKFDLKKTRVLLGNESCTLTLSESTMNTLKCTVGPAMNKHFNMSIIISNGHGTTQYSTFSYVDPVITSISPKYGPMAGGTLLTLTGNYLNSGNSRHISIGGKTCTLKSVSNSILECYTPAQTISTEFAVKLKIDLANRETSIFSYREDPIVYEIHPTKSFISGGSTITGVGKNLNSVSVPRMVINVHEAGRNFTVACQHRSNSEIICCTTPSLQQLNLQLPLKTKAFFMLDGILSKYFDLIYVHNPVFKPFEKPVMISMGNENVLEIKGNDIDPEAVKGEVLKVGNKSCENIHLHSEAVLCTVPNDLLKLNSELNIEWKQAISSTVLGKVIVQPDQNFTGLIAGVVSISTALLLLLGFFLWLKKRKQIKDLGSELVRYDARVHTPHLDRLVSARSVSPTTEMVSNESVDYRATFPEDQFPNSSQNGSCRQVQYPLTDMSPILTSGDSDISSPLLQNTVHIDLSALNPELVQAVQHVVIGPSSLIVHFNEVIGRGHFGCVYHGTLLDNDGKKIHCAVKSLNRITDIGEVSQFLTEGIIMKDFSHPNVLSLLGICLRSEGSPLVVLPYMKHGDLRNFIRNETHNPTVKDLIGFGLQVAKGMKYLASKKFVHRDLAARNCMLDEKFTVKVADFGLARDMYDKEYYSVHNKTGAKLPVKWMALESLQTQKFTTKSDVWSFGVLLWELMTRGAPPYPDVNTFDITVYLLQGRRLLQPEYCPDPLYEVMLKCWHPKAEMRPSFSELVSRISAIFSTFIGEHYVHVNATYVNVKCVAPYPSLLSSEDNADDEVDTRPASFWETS
METRIC: Ki

Check out these entries, answers already filled in.
Oc1ccc(Cc2nnc3ccc(N4CCC(CCc5ccccc5)C4)nn23)cc1 (stereo not shown) [Compound 205] | 100 to 2000 nM
COc1ccc(Nc2nn3c(Cc4ccc(O)c(Cl)c4)nnc3s2)cc1 [Compound 39] | 100 to 2000 nM
COc1ccccc1Nc1nn2c(Cc3ccc(O)c(F)c3)nnc2s1 [Compound 30] | 100 to 2000 nM
CN(c1ccc2nnc(Cc3ccc(O)cc3)n2n1)C1CCCCC1 [Compound 196] | 100 to 2000 nM
CC1CCCC(Nc2ccc3nnc(Cc4ccc(O)cc4)n3n2)C1C (stereo not shown) [Compound 270] | 100 to 2000 nM

// next entry
Field request: Ki | item: COc1cccc(Nc2nn3c(Cc4ccc(O)c(OC)c4)nnc3s2)c1 [Compound 38]
100 to 2000 nM

----------
Catalogue of Ki values
molecular target: c-Met (Homo sapiens, UniProt P08581); assay: Ki determination for the inhibition of c-Met kinase activity (standard coupled enzyme system); format: biochemical; details: coupled enzyme system, 200 μM ATP, 10 μM polyGluTyr, 80 nM c-Met, 30° C.; read-out: c-Met Ki

Recorded results for 3 compounds are shown here.
O=c1[nH]c2ccc(Nc3ccc4nnc(Cc5ccc(O)cc5)n4n3)cc2[nH]1 | < 0.1 µM
Oc1ccc(Cc2nnc3ccc(N[C@@H]4CCOC4)nn23)cc1 | 0.1 to 2 µM
Oc1ccc(Cc2nnc3sc(Nc4ccccc4Cl)nn23)cc1F | 0.1 to 2 µM

// returns reported Ki for input Oc1ccc(Cc2nnc3ccc(NC4c5ccccc5CC4O)nn23)cc1 (stereo not drawn)
0.1 to 2 µM

What about COc1ccccc1Nc1nn2c(Cc3ccc4c(c3)OCO4)nnc2s1 ?
0.1 to 2 µM

Same thing, different compound: CC(Oc1ccc2cccnc2c1)c1nnc2sc(Nc3cccc(Cl)c3)nn12 (stereo not drawn)
> 2 µM

Now try Oc1ccc(Cc2nnc3sc(Nc4cccc(Cl)c4Cl)nn23)cc1 .
< 0.1 µM

Could you do the same for Oc1ccc(Cc2nnc3ccc(NCCN4CCOCC4)nn23)cc1 , please?
> 2 µM

Also N#Cc1cccc(Nc2ccc3nnc(Cc4ccc5c(c4)OCO5)n3n2)c1 , if possible.
< 0.1 µM

----------
Recorded Ki by entry
biological target: c-Met (Homo sapiens, UniProt P08581); test: Ki determination for the inhibition of c-Met kinase activity (standard coupled enzyme system); format: biochemical; conditions: coupled enzyme system, 200 μM ATP, 10 μM polyGluTyr, 80 nM c-Met, 30° C.; read-out: c-Met Ki

CN(C)c1nn2c(Cc3ccc(O)cc3)nnc2s1 [Compound 41] | > 2000 nM

Observed Ki on c-Met (Homo sapiens, UniProt P08581) for COc1ccc(Nc2nn3c(Cc4ccc(O)cc4)nnc3s2)cc1 [Compound 80] , please.
< 100 nM

Now give it for CC(C)C[C@@H](CO)Nc1ccc2nnc(Cc3ccc(O)cc3)n2n1 [Compound 188] too.
100 to 2000 nM

Another molecule to look at: Cc1ccc(Nc2nn3c(Cc4ccc(O)cc4)nnc3s2)cc1C [Compound 72]
100 to 2000 nM

// next record Oc1cccc(Cc2nnc3sc(Nc4cc(F)cc(F)c4)nn23)c1 [Compound 124]
100 to 2000 nM

----------
Measured pKi, listed per entry for reference.
molecular target: c-Met (Homo sapiens, UniProt P08581); assay: Ki determination for the inhibition of c-Met kinase activity (standard coupled enzyme system); format: biochemical; details: coupled enzyme system, 200 μM ATP, 80 nM c-Met, 30° C.; read-out: c-Met Ki
pKi: −log10 of the molar value.

COCCC(=O)N[C@H]1CCCC[C@H]1Nc1ccc2nnc([C@@H](C)c3ccc(O)cc3)n2n1 [Compound 447] | 5.70 to 7.00
Oc1ccc(Cc2nnc3ccc(Nc4ccc(F)c(Cl)c4)nn23)cc1 [Compound 424] | > 7.00
Oc1ccc(Cc2nnc3ccc(Nc4cc(Cl)ccc4Cl)nn23)cc1 [Compound 361] | > 7.00
O=C(O)c1cn(Cc2nnc3ccc(Nc4cccc(Cl)c4)nn23)c2ccccc12 [Compound 461] | < 5.70

Entry CS(=O)(=O)Nc1cccc(Cc2nnc3ccc(Nc4cccc(Cl)c4)nn23)c1 [Compound 403] : reported pKi = ?
5.70 to 7.00

Also check C[C@@H](c1ccc(O)cc1)c1nnc2ccc(Cl)nn12 [Compound 501]
5.70 to 7.00

And the next one, CC(=O)N[C@H]1CCCC[C@@H]1Nc1ccc2nnc([C@@H](C)c3ccc(O)cc3)n2n1 [Compound 448] ?
< 5.70

Subsequent entry: CCc1cccc(Nc2ccc3nnc(Cc4ccc(OC)cc4)n3n2)c1 [Compound 291]
5.70 to 7.00

Input Clc1ccc(OCc2nnc3ccc(Nc4cccc(Cl)c4)nn23)cc1 [Compound 380]
< 5.70

Repeat with CCOc1cccc(OCc2nnc3ccc(Nc4cccc(Cl)c4)nn23)c1 [Compound 385]
< 5.70

Also need CCc1cccc(Nc2ccc3nnc(Cc4ccc(O)cc4)n3n2)c1 [Compound 288] , thanks.
> 7.00

Again, but for Cc1cc(C)cc(Nc2ccc3nnc(Cc4ccc(O)c(Cl)c4)n3n2)c1 [Compound 296]
> 7.00

Would you mind doing Clc1cccc(Nc2ccc3nnc(COc4ccccn4)n3n2)c1 [Compound 373] as well?
< 5.70

Try this compound too: Clc1cccc(Nc2ccc3nnc(Cn4nc(Cl)c5ccccc54)n3n2)c1 [Compound 486]
< 5.70

Okay, and Nc1cccc(Cc2nnc3ccc(Nc4cccc(Cl)c4)nn23)c1 [Compound 317] ?
< 5.70

Okay, and Clc1cccc(Nc2ccc3nnc(CSc4ccccc4)n3n2)c1 [Compound 387] ?
< 5.70

Moving on to the next compound: CN(C)c1ccc(Cc2nnc3ccc(Nc4cccc(Cl)c4)nn23)cc1 [Compound 457]
< 5.70

Next: Oc1ccc(Cc2nnc3n2N=C(c2ccccc2)CS3)cc1 [Compound 522]
> 7.00

----------
target: c-Met (Homo sapiens); test: Ki determination for the inhibition of c-Met kinase activity (standard coupled enzyme system); assay type: biochemical; conditions: coupled enzyme system, 200 μM ATP, 80 nM c-Met, 30° C.; number printed instead of class symbol; read-out: c-Met Ki
METRIC: pKi
Keep it numeric: pKi is minus log10 of the concentration in mol/L.

Provide value of pKi for this record tested with c-Met (Homo sapiens): COc1ccc(C2(c3nnc4ccc(Nc5cccc(Cl)c5)nn34)CC2)cc1
7.00

----------
molecular target: c-Met (Homo sapiens, UniProt P08581); assay: Ki determination for the inhibition of c-Met kinase activity (standard coupled enzyme system); assay type: biochemical; settings: coupled enzyme system, 200 μM ATP, 80 nM c-Met, 30° C.; read-out: c-Met Ki
METRIC: Ki

Here is how some compounds turned out for Ki.
C[C@@H](c1ccc(O)cc1)c1nnc2ccc(Nc3cccc(Cl)c3)nn12 [Compound 320] | < 0.1 µM
COc1cc(NCc2nnc3ccc(Nc4cccc(Cl)c4)nn23)cc(OC)c1OC [Compound 346] | > 2 µM
Fc1ccc(NCc2nnc3ccc(Nc4cccc(Cl)c4)nn23)c(F)c1 [Compound 344] | > 2 µM
CC(=O)Nc1ccc(OCc2nnc3ccc(Nc4cccc(Cl)c4)nn23)cc1 [Compound 469] | > 2 µM

Which Ki is listed for Clc1cccc(Nc2ccc3nnc(C4(c5ccc6c(c5)OCO6)CC4)n3n2)c1 [Compound 400] ?
< 0.1 µM

Entry NC(=O)c1ccccc1OCc1nnc2ccc(Nc3cccc(Cl)c3)nn12 [Compound 392] please
> 2 µM

Same question, CC1(C)CC(Nc2ccc3nnc(Cc4ccc(O)cc4)n3n2)CCO1 (stereo not drawn) [Compound 302] this time
0.1 to 2 µM

# repeat for COc1ccc(Cc2nnc3n2N=C(c2ccccc2)CS3)cc1 [Compound 530]
0.1 to 2 µM

C[C@@H](c1ccc(O)cc1)c1nnc2ccc(Sc3nc[nH]n3)nn12 [Compound 508] , same question.
0.1 to 2 µM

----------
molecular target: c-Met (Homo sapiens); assay: Ki determination for the inhibition of c-Met kinase activity (standard coupled enzyme system); type: biochemical; conditions: coupled enzyme system, 200 μM ATP, 10 μM polyGluTyr, 80 nM c-Met, 30° C.; read-out: c-Met Ki
METRIC: Ki

FC(F)(F)c1cccc(Nc2ccc3nnc(Cc4ccc5c(c4)OCO5)n3n2)c1 [Compound 226] | 0.1 to 2 µM
COc1cccc(Nc2ccc3nnc(Cc4ccc(O)cc4)n3n2)c1 [Compound 184] | < 0.1 µM
Oc1cccc(Cc2nnc3sc(Nc4cccc(F)c4Cl)nn23)c1 [Compound 110] | 0.1 to 2 µM
COc1cccc(N2CCN(c3ccc4nnc(Cc5ccc(O)cc5)n4n3)CC2)c1 [Compound 194] | 0.1 to 2 µM
Cc1cccc(Nc2ccc3nnc(Cc4ccncc4)n3n2)c1 [Compound 231] | > 2 µM

Any idea what Ki came out for COc1ccc(Cc2nnc3ccc(Nc4cccc(C(C)O)c4)nn23)cc1 (stereo not shown) [Compound 257] on c-Met (Homo sapiens)?
0.1 to 2 µM

Thanks! And O=C(Nc1nn2c(Cc3ccc(O)cc3)nnc2s1)c1ccccc1 [Compound 57] ?
> 2 µM

Another compound to check: Oc1ccc(Cc2nnc3ccc(NCCCn4ccnc4)nn23)cc1 [Compound 180]
0.1 to 2 µM

Can you handle Clc1cc(Cl)cc(Nc2ccc3nnc(Cc4ccc5c(c4)OCO5)n3n2)c1 [Compound 246] next?
0.1 to 2 µM

# repeat for COc1ccc(Cc2nnc3ccc(Nc4cccc(OC)c4)nn23)cc1 [Compound 242]
0.1 to 2 µM

Now try COc1ccc(Cc2nnc3ccc(Nc4cccc(F)c4)nn23)cc1 [Compound 285] .
< 0.1 µM

Now give it for Oc1ccc(Cc2nnc3ccc(Nc4cccc(C(F)(F)F)c4)nn23)cc1Cl [Compound 224] too.
< 0.1 µM

What do we get for Oc1ccc(Cc2nnc3sc(Nc4ccccc4Cl)nn23)cc1 [Compound 78] ?
< 0.1 µM

Repeat for the following compound: Cc1cc(F)ccc1Nc1nn2c(Cc3ccc(O)cc3)nnc2s1 [Compound 76]
0.1 to 2 µM

Another compound to look at: Oc1ccc(Cc2nnc3ccc(N4CCC[C@H]4CN4CCCC4)nn23)cc1 [Compound 200]
> 2 µM

Same lookup for Fc1cc(F)cc(Nc2ccc3nnc(Cc4ccc5c(c4)OCO5)n3n2)c1 [Compound 253] , please.
< 0.1 µM
